Data provenance is the supplement of paper PMC10724198.

Listed here are sequences together with their documented protein stability index.
Tested on: Saccharomyces cerevisiae
experiment.summary: protein stability index of tFT-peptide fusion (C-terminal peptide) (PSI (0-1 scale)); higher = more stable (slower turnover)
protocol.conditions: genetic background: wild type; temperature: 30 C
Write the number on its own, no unit after it.

Completed entries (count: 3):
{"ordered.residues": "RLFTTVHSLQDV", "assay.value": 0.674}
{"ordered.residues": "ETWRRIDRLFGS", "assay.value": 0.619}
{"ordered.residues": "YADAGRVSLWIA", "assay.value": 0.551}

// moving on: another record for protein stability index
In: Request - read-out protein stability index | tested on Saccharomyces cerevisiae | sequence SHFHSRDARRSP;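 also: PSI is a weighted mean of sequencing reads over stability bins, variants kept only with over 10 reads, mCherry proximal and sfGFP distal, peptide attached via GGGS linker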
Out: 0.673
